- System: 994946-033-R-J1-PDC complex spheroid viability;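 note: spheroids exposed to drugs for 7 days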
- assay_text: Anticancer human tumor 994946-033-R-J1-PDC patient-derived melanoma cell line growth inhibition [POLQ]
- condition_set: curve of first compound; second compound 10 µM
Some molecules, each annotated with its measured pIC50.
pIC50 (log units): -log10 of the concentration in mol/L.

{"molecule": "C=CCn1c(=O)c2cnc(Nc3ccc(N4CCN(C)CC4)cc3)nc2n1-c1cccc(C(C)(C)O)n1 + Nc1ccc(C#CCN(C(=O)Cc2ncc(C(F)(F)F)cc2C(F)(F)F)c2ccc(F)cc2)nn1", "pIC50": 6.19}

q: Check the records and state pIC50 for C=CCn1c(=O)c2cnc(Nc3ccc(N4CCN(C)CC4)cc3)nc2n1-c1cccc(C(C)(C)O)n1 + COC1C(OC(N)=O)C(O)C(Oc2ccc3c(O)c(NC(=O)c4ccc(O)c(CC=C(C)C)c4)c(=O)oc3c2C)OC1(C)C
a: 6.02

q: Check the records and state pIC50 for CCCS(=O)(=O)Nc1ccc(F)c(C(=O)c2c[nH]c3ncc(-c4ccc(Cl)cc4)cc23)c1F + COC1C(OC(N)=O)C(O)C(Oc2ccc3c(O)c(NC(=O)c4ccc(O)c(CC=C(C)C)c4)c(=O)oc3c2C)OC1(C)C
a: 5.21

q: Check the records and state pIC50 for COc1cc(C2c3cc4c(cc3C(OC3OC5COC(C)OC5C(O)C3O)C3COC(=O)C23)OCO4)cc(OC)c1O (stereo unspecified) + Nc1ccc(C#CCN(C(=O)Cc2ncc(C(F)(F)F)cc2C(F)(F)F)c2ccc(F)cc2)nn1
a: 6.06

q: Check the records and state pIC50 for O=C(Nc1ccc(O)c(NS(=O)(=O)c2ccc(F)cc2)c1)c1ccc(-c2ccccc2)cc1 + COC1C(OC(N)=O)C(O)C(Oc2ccc3c(O)c(NC(=O)c4ccc(O)c(CC=C(C)C)c4)c(=O)oc3c2C)OC1(C)C
a: 5.34

q: Check the records and state pIC50 for COc1cccc(OCCCN)c1-c1cc(Nc2cnc(C#N)cn2)n[nH]1 + Cc1cccc(N(C)C(=O)C2C(O)CCN2c2nc(C)cc(C(F)(F)F)c2C#N)c1
a: 7.10
